The measurements presented in this section are drawn from patent US20260092071A1.

Molecular target: SMARCA2 (Homo sapiens, UniProt P51531)
Sequence (P51531 whole entry): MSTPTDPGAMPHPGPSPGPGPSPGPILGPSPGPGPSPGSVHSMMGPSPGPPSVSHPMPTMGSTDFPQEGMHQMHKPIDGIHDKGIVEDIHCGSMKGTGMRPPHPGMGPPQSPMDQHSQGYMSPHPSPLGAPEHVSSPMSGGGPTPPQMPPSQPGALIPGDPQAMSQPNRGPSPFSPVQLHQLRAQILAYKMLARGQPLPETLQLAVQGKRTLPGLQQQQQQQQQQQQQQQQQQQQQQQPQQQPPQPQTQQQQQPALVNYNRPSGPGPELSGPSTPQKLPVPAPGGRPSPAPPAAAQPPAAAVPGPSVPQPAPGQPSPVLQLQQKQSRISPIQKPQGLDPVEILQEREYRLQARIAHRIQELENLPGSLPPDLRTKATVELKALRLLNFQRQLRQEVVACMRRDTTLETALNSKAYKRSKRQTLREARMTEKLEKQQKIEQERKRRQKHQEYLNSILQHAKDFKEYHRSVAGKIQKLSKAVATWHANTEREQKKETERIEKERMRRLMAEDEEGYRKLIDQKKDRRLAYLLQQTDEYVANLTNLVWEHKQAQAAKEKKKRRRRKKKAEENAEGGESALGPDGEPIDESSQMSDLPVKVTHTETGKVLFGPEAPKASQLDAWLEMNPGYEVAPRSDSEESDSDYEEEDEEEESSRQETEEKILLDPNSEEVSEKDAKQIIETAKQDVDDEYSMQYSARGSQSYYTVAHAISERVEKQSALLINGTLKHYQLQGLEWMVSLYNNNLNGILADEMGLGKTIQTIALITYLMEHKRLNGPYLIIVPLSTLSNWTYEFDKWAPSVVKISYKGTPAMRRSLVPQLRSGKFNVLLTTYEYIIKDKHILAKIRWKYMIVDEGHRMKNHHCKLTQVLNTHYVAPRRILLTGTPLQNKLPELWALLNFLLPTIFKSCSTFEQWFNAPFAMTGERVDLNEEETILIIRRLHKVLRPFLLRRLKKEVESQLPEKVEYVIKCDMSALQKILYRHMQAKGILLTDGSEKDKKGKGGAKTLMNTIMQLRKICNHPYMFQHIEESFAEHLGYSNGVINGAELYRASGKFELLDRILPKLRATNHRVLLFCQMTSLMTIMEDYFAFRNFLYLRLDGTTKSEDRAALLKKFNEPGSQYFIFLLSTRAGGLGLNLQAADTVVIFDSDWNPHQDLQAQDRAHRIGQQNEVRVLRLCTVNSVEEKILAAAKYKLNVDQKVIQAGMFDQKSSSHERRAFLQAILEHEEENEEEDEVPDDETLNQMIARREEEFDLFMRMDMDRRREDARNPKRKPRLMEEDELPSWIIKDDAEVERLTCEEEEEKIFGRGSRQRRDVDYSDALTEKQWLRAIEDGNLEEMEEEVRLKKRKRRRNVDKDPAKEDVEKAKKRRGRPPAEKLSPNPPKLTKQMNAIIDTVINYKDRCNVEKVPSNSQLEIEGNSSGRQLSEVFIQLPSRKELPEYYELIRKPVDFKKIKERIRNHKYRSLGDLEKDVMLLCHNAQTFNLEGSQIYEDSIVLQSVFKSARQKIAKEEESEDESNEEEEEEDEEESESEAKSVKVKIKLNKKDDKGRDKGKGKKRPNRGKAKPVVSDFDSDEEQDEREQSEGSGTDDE
Test: HiBit assay in engineered HT1080 CRISPR knock-in cell, 6 hrs (B series), SMARCA2
Type: cell-based
Conditions: HT-1080, HT1080 CRISPR knock-in cells, 6 hrs incubation; read-out: SMARC A2 HT1080 HiBit Dmax (%)
Description: The HiBit assay was performed using engineered HT1080 CRISPR knock-in cell utilizing the Nano-Glo HiBiT Lytic Detection System from Promega, Cat #N3040. Compounds were transferred, 25 nL DMSO or test compounds (final DMSO @ 0.1%) to intermediate plates (Corning3570) using ECHO550. […] After briefly centrifugation (2000 rpm 1 mins), plate was read on Envision (Ultrasensitive luminescence model).
Below: a set of entries, each annotated with reported Dmax.

[
  {
    "MOLECULE": "Cc1ncsc1-c1ccc([C@H](CC(=O)NCCCCN2CCC(c3ccc4c(c3)-n3c(nc(=O)c5c(Cl)cccc53)C4(C)C)CC2)NC(=O)[C@@H]2C[C@@H](O)CN2C(=O)[C@@H](NC(=O)C2(F)CC2)C(C)(C)C)cc1 [Compound B33]",
    "RESULT": "< 50%"
  },
  {
    "MOLECULE": "Cc1ncsc1-c1ccc([C@H](C)NC(=O)[C@@H]2C[C@@H](O)CN2C(=O)C(c2cc(N3CCC(c4ccc5c(c4)C(C)(C)c4nc(=O)c6c(Cl)cccc6n4-5)CC3)no2)C(C)C)cc1 (some centres unmarked) [Compound B42]",
    "RESULT": "> 90%"
  },
  {
    "MOLECULE": "Cc1ncsc1-c1ccc([C@H](C)NC(=O)[C@@H]2C[C@@H](O)CN2C(=O)[C@@H](c2cc(N3CCC(CN4CCN(c5ccc6c(c5)-n5c(nc(=O)c7c(Cl)cccc75)C6(C)C)CC4)CC3)no2)C(C)C)cc1 [Compound B111]",
    "RESULT": "> 90%"
  },
  {
    "MOLECULE": "Cc1ncsc1-c1ccc([C@H](C)NC(=O)C2C[C@@H](O)CN2C(=O)[C@@H](c2cc(OCCCCN3CCC(c4cccc5c4C(C)(C)c4nc(=O)c6c(Cl)cccc6n4-5)CC3)no2)C(C)C)cc1 (stereo in doubt) [Compound B98]",
    "RESULT": "70 to 90%"
  },
  {
    "MOLECULE": "Cc1ncsc1-c1ccc([C@H](C)NC(=O)[C@@H]2C[C@@H](O)CN2C(=O)[C@@H](c2cc(OCCN3CCC(c4ccc5c(c4)-n4c(nc(=O)c6c(Cl)cccc64)C5(C)C)CC3)no2)C(C)C)cc1 [Compound B32]",
    "RESULT": "> 90%"
  }
]

Dmax recorded for this molecule, Cc1ncsc1-c1ccc([C@H](C)NC(=O)[C@@H]2C[C@@H](O)CN2C(=O)C(c2cc(OCCCCn3cc(-c4ccc5c(c4)C(C)(C)c4nc(=O)c6c(Cl)cccc6n4-5)cn3)no2)C(C)C)cc1 (some centres unmarked) [Compound B99] , is 50 to 69%

Dmax recorded for this molecule, Cc1nc(C)c(-c2ccc([C@H](C)NC(=O)[C@@H]3C[C@@H](O)CN3C(=O)[C@@H](c3cc(N4CCC(c5cccc6c5C(C)(C)c5nc(=O)c7c(Cl)cccc7n5-6)CC4)no3)C(C)C)cc2)s1 [Compound B167] , is 70 to 90%

###

target: SMARCA2 (Homo sapiens); test: HiBiT assay for protein degradation, Hela SMARCA2-HiBiT cells (A series); assay type: cell-based; design: Hela cells were genetically modified via CRISPR/Cas9 to fuse HiBiT to the carboxy terminus of SMARCA2; host or cells: HeLa (CRISPR/Cas9 HiBiT knock-in); conditions: Hela SMARCA2-HiBiT cells, 24 hours treatment; read-out: SMARC A2 Hela HiBit DC50
Below: a set of entries, each annotated with reported DC50.

Record excerpt, results attached:
[
  {
    "COMPOUND": "Cc1ncsc1-c1ccc([C@H](C)NC(=O)[C@@H]2C[C@@H](O)CN2C(=O)[C@@H](NC(=O)CCCCCN2CCC(c3ccc4c(c3)C3(CCCCC3)c3nc(=O)c5c(Cl)cccc5n3-4)CC2)C(C)(C)C)cc1 [Compound A9]",
    "MEASURED_ON": "SMARCA2 (Homo sapiens)",
    "DC50": "< 0.1 µM"
  },
  {
    "COMPOUND": "Cc1ncsc1-c1ccc([C@H](CCCCN2CCC(c3ccc4c(c3)-n3c(nc(=O)c5c(Cl)cccc53)C43CCOCC3)CC2)NC(=O)[C@@H]2C[C@@H](O)CN2C(=O)[C@@H](NC(=O)C2(F)CC2)C(C)(C)C)cc1 [Compound A10]",
    "MEASURED_ON": "SMARCA2 (Homo sapiens)",
    "DC50": "0.501 to 1 µM"
  },
  {
    "COMPOUND": "Cc1ncsc1-c1ccc([C@H](Cn2cc([C@H]3CC[C@H](CN4CCC(c5ccc6c(n5)-n5c(nc(=O)c7c(Br)cccc75)C65CCCCC5)CC4)CC3)nn2)NC(=O)[C@@H]2C[C@@H](O)CN2C(=O)[C@@H](NC(=O)C2(F)CC2)C(C)(C)C)cc1 [Compound A34]",
    "MEASURED_ON": "SMARCA2 (Homo sapiens)",
    "DC50": "0.501 to 1 µM"
  }
]

Next:
DC50 recorded for this compound, Cc1ncsc1-c1ccc([C@H](C)NC(=O)[C@@H]2C[C@@H](O)CN2C(=O)[C@@H](NC(=O)CN2CCC(c3ccc4c(c3)-n3c(nc(=O)c5c(Cl)cccc53)C43CCCCC3)CC2)C(C)(C)C)cc1 [Compound A39] , is < 0.1 µM

###

target: SMARCA4 (Homo sapiens, UniProt P51532); test: HiBit assay in engineered HT1080 CRISPR knock-in cell, 6 hrs (B series), SMARCA4; type: cell-based; conditions: HT1080 CRISPR knock-in cells, 6 hrs incubation; read-out: SMARC A4 HT1080 HiBit DC50
Sequence (P51532 whole entry): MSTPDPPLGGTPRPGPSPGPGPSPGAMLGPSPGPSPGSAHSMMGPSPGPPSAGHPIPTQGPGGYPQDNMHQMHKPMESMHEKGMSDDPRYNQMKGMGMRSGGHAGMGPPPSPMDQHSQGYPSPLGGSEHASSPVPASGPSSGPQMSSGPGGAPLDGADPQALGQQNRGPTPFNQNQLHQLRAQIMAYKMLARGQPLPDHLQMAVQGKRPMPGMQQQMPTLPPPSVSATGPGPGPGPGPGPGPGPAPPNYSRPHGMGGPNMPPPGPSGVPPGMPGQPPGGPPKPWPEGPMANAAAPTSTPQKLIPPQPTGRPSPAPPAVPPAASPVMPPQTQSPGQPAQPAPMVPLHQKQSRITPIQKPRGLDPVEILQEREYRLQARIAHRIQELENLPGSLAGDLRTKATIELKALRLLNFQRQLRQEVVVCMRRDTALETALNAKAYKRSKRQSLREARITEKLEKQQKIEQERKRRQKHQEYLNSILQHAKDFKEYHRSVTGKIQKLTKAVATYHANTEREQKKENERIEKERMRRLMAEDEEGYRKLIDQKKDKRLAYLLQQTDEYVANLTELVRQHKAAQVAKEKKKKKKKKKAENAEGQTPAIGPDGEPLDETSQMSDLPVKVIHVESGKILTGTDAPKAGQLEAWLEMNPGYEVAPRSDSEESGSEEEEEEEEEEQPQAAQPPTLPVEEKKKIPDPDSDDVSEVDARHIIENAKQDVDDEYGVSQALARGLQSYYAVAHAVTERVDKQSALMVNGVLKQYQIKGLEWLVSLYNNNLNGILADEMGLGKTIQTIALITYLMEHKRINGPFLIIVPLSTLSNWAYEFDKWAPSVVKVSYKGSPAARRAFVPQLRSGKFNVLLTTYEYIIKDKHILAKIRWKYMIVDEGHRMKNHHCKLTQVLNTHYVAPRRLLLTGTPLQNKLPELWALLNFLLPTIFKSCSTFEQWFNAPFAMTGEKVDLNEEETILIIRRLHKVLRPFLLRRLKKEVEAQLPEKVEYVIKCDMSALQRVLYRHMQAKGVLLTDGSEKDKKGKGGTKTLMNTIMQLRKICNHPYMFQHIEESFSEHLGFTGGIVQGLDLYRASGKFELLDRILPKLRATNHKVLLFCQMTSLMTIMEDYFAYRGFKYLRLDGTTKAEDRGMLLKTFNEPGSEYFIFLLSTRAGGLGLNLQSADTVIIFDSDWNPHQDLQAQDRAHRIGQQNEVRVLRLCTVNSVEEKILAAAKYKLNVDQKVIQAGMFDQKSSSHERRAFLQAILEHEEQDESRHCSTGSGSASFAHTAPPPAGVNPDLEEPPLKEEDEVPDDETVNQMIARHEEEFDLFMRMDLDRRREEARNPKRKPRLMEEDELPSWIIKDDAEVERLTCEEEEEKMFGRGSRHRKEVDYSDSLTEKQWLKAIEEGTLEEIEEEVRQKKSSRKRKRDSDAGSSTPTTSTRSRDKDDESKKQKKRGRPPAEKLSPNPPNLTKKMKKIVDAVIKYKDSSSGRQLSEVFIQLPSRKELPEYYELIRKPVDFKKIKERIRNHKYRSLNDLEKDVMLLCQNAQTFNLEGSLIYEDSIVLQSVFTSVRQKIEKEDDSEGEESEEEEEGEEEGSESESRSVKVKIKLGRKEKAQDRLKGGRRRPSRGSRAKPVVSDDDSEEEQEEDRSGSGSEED
Below: a set of entries, each annotated with reported DC50.

[
  {
    "COMPOUND": "Cc1ncsc1-c1ccc([C@H](C)NC(=O)[C@@H]2C[C@@H](O)CN2C(=O)[C@@H](NC(=O)C2CCC(N3CCC(c4ccc5c(c4)-n4c(nc(=O)c6c(Cl)cccc64)C5(C)C)CC3)CC2)C(C)(C)C)cc1 (stereo partly drawn)",
    "DC50": "100 to 500 nM"
  },
  {
    "COMPOUND": "Cc1ncsc1-c1ccc(CNC(=O)[C@@H]2C[C@@H](O)CN2C(=O)[C@@H](NC(=O)C2(F)CC2)C(C)(C)C)c(OCCCCN2CCC(c3ccc4c(c3)-n3c(nc(=O)c5c(Cl)cccc53)C4(C)C)CC2)c1",
    "DC50": "< 100 nM"
  },
  {
    "COMPOUND": "Cc1ncsc1-c1ccc([C@H](C)NC(=O)[C@@H]2C[C@@H](O)CN2C(=O)[C@@H](n2cc(-c3cccc(CN4CCC(c5ccc6c(c5)-n5c(nc(=O)c7c(Cl)cccc75)C6(C)C)CC4)c3)nn2)C(C)(C)C)cc1",
    "DC50": "< 100 nM"
  },
  {
    "COMPOUND": "Cc1ncsc1-c1ccc([C@H](CC(=O)N[C@H]2CC[C@H](CN3CCC(c4ccc5c(c4)-n4c(nc(=O)c6c(Cl)cccc64)C5(C)C)CC3)CC2)NC(=O)[C@@H]2C[C@@H](O)CN2C(=O)[C@@H](NC(=O)C2(F)CC2)C(C)(C)C)cc1",
    "DC50": "100 to 500 nM"
  },
  {
    "COMPOUND": "Cc1ncsc1-c1ccc([C@H](C)NC(=O)[C@@H]2C[C@@H](O)CN2C(=O)[C@H](C(C)C)n2cc(CC3CCC(N4CCC(c5cccc6c5C(C)(C)c5nc(=O)c7c(Cl)cccc7n5-6)CC4)CC3)nn2)cc1 (stereo partly drawn)",
    "DC50": "100 to 500 nM"
  }
]

Next:
DC50 recorded for this compound, `C[C@H](NC(=O)[C@@H]1C[C@@H](O)CN1C(=O)[C@@H](n1cc([C@H]2CC[C@H](CN3CCN(c4ccc5c(c4)-n4c(nc(=O)c6c(Cl)cccc64)C5(C)C)CC3)CC2)nn1)C(C)(C)C)c1ccc(-c2ccnn2C)cc1` , is < 100 nM

###

target: SMARCA2 (Homo sapiens, UniProt P51531); assay: HiBit assay in engineered HT1080 CRISPR knock-in cell, 6 hrs (B series), SMARCA2; format: cell-based; settings: HT1080 CRISPR knock-in cells, 6 hrs incubation; read-out: SMARC A2 HT1080 HiBit DC50
Below: a set of entries, each annotated with reported DC50.

Record excerpt, results attached:
[
  {
    "COMPOUND": "Cc1cc(C(C(=O)N2C[C@H](O)C[C@H]2C(=O)N[C@@H](CCN2CCC(c3cccc4c3C(C)(C)c3nc(=O)c5c(Cl)cccc5n3-4)CC2)c2ccc(-c3scnc3C)cc2)C(C)C)on1 (stereo partly drawn) [Compound B165]",
    "MEASURED_ON": "SMARCA2 (Homo sapiens, UniProt P51531)",
    "DC50": "100 to 500 nM"
  },
  {
    "COMPOUND": "Cc1ncsc1-c1ccc([C@H](C)NC(=O)[C@@H]2C[C@@H](O)CN2C(=O)C(c2cc(CN3CCC(c4ccc5c(c4)C(C)(C)c4nc(=O)c6c(Cl)cccc6n4-5)CC3)no2)C(C)C)cc1 (stereo partly drawn) [Compound B8]",
    "MEASURED_ON": "SMARCA2 (Homo sapiens, UniProt P51531)",
    "DC50": "< 100 nM"
  },
  {
    "COMPOUND": "Cc1cc(C(C(=O)N2C[C@H](O)C[C@H]2C(=O)N[C@@H](C)c2ccc(-c3scnc3C#CCOCCOCCN3CCC(c4ccc5c(c4)-n4c(nc(=O)c6c(Cl)cccc64)C5(C)C)CC3)cc2)C(C)C)on1 (stereo partly drawn) [Compound B104]",
    "MEASURED_ON": "SMARCA2 (Homo sapiens, UniProt P51531)",
    "DC50": "< 100 nM"
  }
]

DC50 recorded for this compound, Cc1ncsc1-c1ccc([C@H](C)NC(=O)[C@@H]2C[C@@H](O)CN2C(=O)[C@H](c2cc(N3CCC(C(=O)N4CCC(c5ccc6c(c5)C(C)(C)c5nc(=O)c7c(Cl)cccc7n5-6)CC4)CC3)no2)C(C)C)cc1 [Compound B89] , is < 100 nM

DC50 recorded for this compound, Cc1ncsc1-c1ccc([C@H](C)NC(=O)[C@@H]2C[C@@H](O)CN2C(=O)[C@H](C(C)C)n2cc(C3CCC(c4cccc5c4C(C)(C)c4nc(=O)c6c(Cl)cccc6n4-5)CC3)nn2)cc1 (stereo partly drawn) [Compound B162] , is < 100 nM

DC50 recorded for this compound, CC(C)C(C(=O)N1C[C@H](O)C[C@H]1C(=O)N[C@@H](C)c1ccc(-c2ncnn2C)cc1)c1cc(OCCN2CCC(c3ccc4c(c3)C(C)(C)c3nc(=O)c5c(Cl)cccc5n3-4)CC2)no1 (stereo partly drawn) [Compound B74] , is 100 to 500 nM

DC50 recorded for this compound, Cc1ncsc1-c1ccc([C@H](C)NC(=O)[C@@H]2C[C@@H](O)CN2C(=O)[C@@H](c2cc(N3CCC(C(=O)N4CCC(c5ccc6c(c5)C(C)(C)c5nc(=O)c7c(Cl)cccc7n5-6)CC4)CC3)no2)C(C)C)cc1 [Compound B90] , is < 100 nM

DC50 recorded for this compound, Cc1ncsc1-c1ccc([C@H](C)NC(=O)[C@@H]2C[C@@H](O)CN2C(=O)[C@@H](c2cc(OCC3(CN4CCC(c5ccc6c(c5)-n5c(nc(=O)c7c(Cl)cccc75)C6(C)C)CC4)CC3)no2)C(C)C)cc1 [Compound B91] , is < 100 nM
